target: SMARCA2-HiBiT HeLa cells (protein which is expressed from the SMARCA2 gene) (Homo sapiens); construct: protein which is expressed from the SMARCA2 and SMARCA4 genes; host or cells: HeLa (SMARCA2-HiBiT engineered line); assay: SMARCA2 degradation assay (HiBiT-fusion HeLa cell line, 24 h, luminescence); type: cell-based; conditions: @ 1 μM
Sequence (P51531 whole entry, the tested form may be a part): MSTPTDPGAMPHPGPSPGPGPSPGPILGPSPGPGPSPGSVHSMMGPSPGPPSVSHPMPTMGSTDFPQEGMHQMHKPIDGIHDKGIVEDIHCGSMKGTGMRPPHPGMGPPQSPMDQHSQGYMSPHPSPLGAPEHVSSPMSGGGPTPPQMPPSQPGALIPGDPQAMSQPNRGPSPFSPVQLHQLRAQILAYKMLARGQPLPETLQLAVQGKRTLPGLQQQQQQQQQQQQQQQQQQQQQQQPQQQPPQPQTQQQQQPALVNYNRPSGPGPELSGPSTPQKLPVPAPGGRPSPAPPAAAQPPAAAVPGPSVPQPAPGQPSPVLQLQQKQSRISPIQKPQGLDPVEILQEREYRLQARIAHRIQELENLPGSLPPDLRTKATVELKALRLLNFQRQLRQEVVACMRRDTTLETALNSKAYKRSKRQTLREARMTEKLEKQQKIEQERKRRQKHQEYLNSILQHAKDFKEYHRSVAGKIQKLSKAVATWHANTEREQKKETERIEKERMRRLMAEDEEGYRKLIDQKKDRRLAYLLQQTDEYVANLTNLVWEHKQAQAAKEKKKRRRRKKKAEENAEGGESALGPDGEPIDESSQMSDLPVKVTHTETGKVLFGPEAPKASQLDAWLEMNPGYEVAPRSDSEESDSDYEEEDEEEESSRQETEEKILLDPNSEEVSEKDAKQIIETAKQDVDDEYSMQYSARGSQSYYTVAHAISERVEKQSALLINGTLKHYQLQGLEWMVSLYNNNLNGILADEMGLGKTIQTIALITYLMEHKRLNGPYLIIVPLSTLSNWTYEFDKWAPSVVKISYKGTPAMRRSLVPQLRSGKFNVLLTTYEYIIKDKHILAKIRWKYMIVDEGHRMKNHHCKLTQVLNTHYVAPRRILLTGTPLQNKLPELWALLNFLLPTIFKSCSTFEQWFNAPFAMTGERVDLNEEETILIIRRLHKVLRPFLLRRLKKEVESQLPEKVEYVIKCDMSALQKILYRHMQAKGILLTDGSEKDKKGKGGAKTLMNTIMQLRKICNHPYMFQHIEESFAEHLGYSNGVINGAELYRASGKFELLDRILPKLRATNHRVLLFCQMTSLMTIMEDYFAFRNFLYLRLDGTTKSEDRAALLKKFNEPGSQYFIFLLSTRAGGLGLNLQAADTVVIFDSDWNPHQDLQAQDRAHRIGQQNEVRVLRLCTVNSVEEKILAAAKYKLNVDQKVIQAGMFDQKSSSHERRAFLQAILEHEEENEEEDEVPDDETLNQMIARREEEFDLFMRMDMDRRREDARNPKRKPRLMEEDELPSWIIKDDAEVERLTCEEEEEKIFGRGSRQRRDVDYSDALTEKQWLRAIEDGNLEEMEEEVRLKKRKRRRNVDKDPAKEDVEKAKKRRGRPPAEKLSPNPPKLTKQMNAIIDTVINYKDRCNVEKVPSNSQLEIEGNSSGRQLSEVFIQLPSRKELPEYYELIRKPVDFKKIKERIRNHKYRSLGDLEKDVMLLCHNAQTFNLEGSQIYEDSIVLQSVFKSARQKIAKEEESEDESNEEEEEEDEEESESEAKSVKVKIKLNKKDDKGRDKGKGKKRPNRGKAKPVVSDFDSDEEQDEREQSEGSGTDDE
experimental_readout: SMARCA2 % Degradation @ 1 μM

Please review the following examples before continuing.
# molecule, SMARCA2 % Degradation @ 1 μM
records = [
    ("CNCC#Cc1nccc(N2CCN(c3cc(-c4ccccc4O)nnc3N)CC2)n1 [Compound P-294]", "++ (++=30-70%)"),
    ("C[C@H]1CN(c2ccnc(C#CCn3ccnc3)n2)CCN1c1cc(-c2ccccc2O)nnc1N [Compound P-293]", "++ (++=30-70%)"),
    ("CC(C)(C)OC(=O)NCC#Cc1nccc(N2C3CCC2CN(c2cc(-c4ccccc4O)nnc2N)CC3)n1 (stereo not shown) [Compound P-303]", "++ (++=30-70%)"),
    ("C[C@@H]1CCN(c2cc(-c3ccccc3O)nnc2N)CCN1c1ccnc(C#CCN2[C@H](C)COC[C@@H]2C)n1 [Compound P-260]", "++ (++=30-70%)"),
]

Look up SMARCA2 % Degradation @ 1 μM for the entries below, preserving their order.
1. C[C@@H]1CCCN1CC#Cc1nccc(N2CCN(c3cc(-c4ccccc4O)nnc3N)CC[C@H]2C)n1 [Compound P-232]
2. C[C@@H]1CCN(c2cc(-c3ccccc3O)nnc2N)CCN1c1ccnc(C#CCN2C[C@@H]3C[C@H]2CO3)n1 [Compound P-200]

Result block:
1. +++ (+++=>70%)
2. +++ (+++=>70%)
